# Measurement Notes: Pharmacokinetics (tmax) after intravenous and nebulizer inhalation administration, dog
# Format: in vivo
# Applied Conditions: blood, inhaled or intranasal, 15 mg/kg, inhalation, 15 mg/kg, 60 minutes exposure, multiple dose (14 day), tmax minus duration of exposure, read-out: App. calc. tmax (converted)
Attribute Measured: Tmax at 14 day (min)
Write down the numeric answer in min and omit the unit.

Answer with reported Tmax at 14 day of CCCCCc1cc(O)c2c(c1)OC(C)(C)[C@@H]1CCC(C)=C[C@@H]21
6

* * *

# Measurement Notes: Pharmacokinetics (tmax) after intravenous and nebulizer inhalation administration, rat
# Assay type: in vivo
# Applied Conditions: blood, inhaled or intranasal, 4.6 mg/kg, inhalation, 4.6 mg/kg, 15 minutes exposure, single dose, tmax minus duration of exposure, read-out: App. calc. tmax (converted)
Attribute Measured: Tmax (min)
Dear colleague, please return just the value in min, with no unit written.

State, in one line, measured Tmax of CCCCCc1cc(O)c2c(c1)OC(C)(C)[C@@H]1CCC(C)=C[C@@H]21
18.3

* * *

# Measurement Notes: Pharmacokinetics (tmax) after intravenous and nebulizer inhalation administration, rat
# Format: in vivo
# Applied Conditions: blood, inhaled or intranasal, 4.6 mg/kg, inhalation, 4.6 mg/kg, 15 minutes exposure, single dose, read-out: Average tmax (converted)
Attribute Measured: Tmax (min)
Value expressed in min; do not type the unit.

Read the entry CCCCCc1cc(O)c2c(c1)OC(C)(C)[C@@H]1CCC(C)=C[C@@H]21 and write its reported Tmax.
33.3

* * *

# Measurement Notes: Pharmacokinetics (tmax) after intravenous and nebulizer inhalation administration, dog
# Format: in vivo
# Applied Conditions: blood, inhaled or intranasal, 5 mg/kg, inhalation, 5 mg/kg, 20 minutes exposure, multiple dose (14 day), tmax minus duration of exposure, read-out: App. calc. tmax (converted)
# Method: Two animal species, rat and dog, are administered the formulation in a 14 day multiple dose inhalation study with a nebulizer. Results from the pharmacokinetic portion of the study indicate comparability between tmax values found for intravenous and inhaled delivery.
Attribute Measured: Tmax at 14 day

Look up and state reported Tmax at 14 day for CCCCCc1cc(O)c2c(c1)OC(C)(C)[C@@H]1CCC(C)=C[C@@H]21
2.2 min

* * *

# Measurement Notes: Pharmacokinetics (tmax) after intravenous and nebulizer inhalation administration, rat
# Format: in vivo
# Applied Conditions: blood, inhaled or intranasal, 5 mg/kg, inhalation, 5 mg/kg, 15 minutes exposure, multiple dose (14 day), tmax minus duration of exposure, read-out: App. calc. tmax (converted)
Attribute Measured: Tmax at 14 day

Give recorded Tmax at 14 day. CCCCCc1cc(O)c2c(c1)OC(C)(C)[C@@H]1CCC(C)=C[C@@H]21
2.4 min

* * *

# Measurement Notes: Pharmacokinetics (tmax) after intravenous and nebulizer inhalation administration, dog
# Type: in vivo
# Applied Conditions: blood, inhaled or intranasal, 2 mg/kg, inhalation, 2 mg/kg, 8 minutes exposure, single dose, read-out: Average tmax (converted)
Attribute Measured: Tmax (min)
Return type: number; implicit unit min.

Indicate its recorded Tmax; the molecule in question is CCCCCc1cc(O)c2c(c1)OC(C)(C)[C@@H]1CCC(C)=C[C@@H]21
15.6

* * *

# Measurement Notes: Pharmacokinetics (tmax) after intravenous and nebulizer inhalation administration, dog
# Type: in vivo
# Applied Conditions: blood, inhaled or intranasal, 2 mg/kg, inhalation, 2 mg/kg, 8 minutes exposure, multiple dose (14 day), tmax minus duration of exposure, read-out: App. calc. tmax (converted)
Attribute Measured: Tmax at 14 day (min)
# output: bare number, implied unit min

Name the recorded Tmax at 14 day of the item CCCCCc1cc(O)c2c(c1)OC(C)(C)[C@@H]1CCC(C)=C[C@@H]21 in your answer.
2.2
